# Tested on: ATP;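 further: ATP exposure 15 min at 22 °C before imaging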
# Assay procedure: switch fluorescence ratio, 500 uM ATP over buffer (Cy3 cluster intensity, sum of 5 cycles each) (fold (ratio)); higher = stronger signal-on switching upon ATP binding; sequences stand for … in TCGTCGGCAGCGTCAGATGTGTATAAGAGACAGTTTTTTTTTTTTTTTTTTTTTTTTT…TC
# Study conditions: aptamer strand: ATP DNA aptamer (quencher-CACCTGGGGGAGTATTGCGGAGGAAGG + anchor), 100 nM annealed; ATP concentration: 500 uM
Quantity: switch fluorescence ratio
Lab note: record the figure alone, no unit after it.

[
  {
    "Chain": "CTGTTGAGGG",
    "Data value": 1
  },
  {
    "Chain": "TTTGGAGTGT",
    "Data value": 1.08
  },
  {
    "Chain": "TTGGGACGGA",
    "Data value": 1.01
  }
]

## Task // switch fluorescence ratio lookup, key: TGAGCCTCGG
## Result 0.965

## Task Next up: CGATGGGCCT
## Result 1.01

## Task Next up: CGGACGGCTC
## Result 1.09

## Task Next up: TGTAGGGGTA
## Result 0.98

## Task Next up: ACATAGTTTT
## Result 0.999

## Task Next up: GGGAGGTATT
## Result 0.997

## Task Next up: GGGAATAGAT
## Result 0.983

## Task Next up: CTTTAGTACG
## Result 0.973

## Task Next up: TAACGGGTGG
## Result 1.01

====

# Test system: ATP;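 further: ATP exposure 15 min at 22 °C before imaging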
# Assay procedure: switch fluorescence ratio, 500 uM ATP over buffer (Cy3 cluster intensity, sum of 5 cycles each) (fold (ratio)); higher = stronger signal-on switching upon ATP binding; sequences stand for … in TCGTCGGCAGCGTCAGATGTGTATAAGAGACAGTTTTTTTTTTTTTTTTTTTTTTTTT…TC
# Study conditions: aptamer strand: ATP DNA aptamer (quencher-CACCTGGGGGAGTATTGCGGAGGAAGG + anchor), 100 nM annealed; ATP concentration: 500 uM
Quantity: switch fluorescence ratio
Lab note: record the figure alone, no unit after it.

[
  {
    "Chain": "TATCATTTTT",
    "switch fluorescence ratio": 1
  },
  {
    "Chain": "GCCTGCCCCG",
    "switch fluorescence ratio": 1.69
  },
  {
    "Chain": "TTTTGTTACA",
    "switch fluorescence ratio": 1.01
  },
  {
    "Chain": "TTTGTGTTCT",
    "switch fluorescence ratio": 0.979
  }
]

## Task For ATP, provide switch fluorescence ratio of GCTTTTGCCG please.
## Result 0.993

## Task Next up: GGGGGCGCGA
## Result 1.02

## Task Next up: GTTAAGGTTT
## Result 1.03

## Task Next up: AGGGAGATAG
## Result 0.986

## Task Next up: GGCGGCGAGG
## Result 1.02

## Task Next up: AGTTGGATGT
## Result 0.977

## Task Next up: TACTGAGCAG
## Result 1.02

## Task Next up: TTCTTTAAAC
## Result 0.992

## Task Next up: AACGGTTTGG
## Result 1.01

## Task Next up: AAAGAGGCTT
## Result 0.983

## Task Next up: TTATAGTTGG
## Result 0.98

## Task Next up: GGTGCGCATA
## Result 1.03

## Task Next up: AATTCAATGA
## Result 1.01

## Task Next up: TAGTTATTAC
## Result 1.08

## Task Next up: GCATGGTTTT
## Result 0.975

## Task Next up: GGGAGAGGGC
## Result 0.991
